Each recorded value in this set is attributed to patent US20200123260A1.

MEASUREMENT TARGET: T1, rhTrkB-ECD (R&D #397-TR/CF) (human, UniProt Q16620 32-430)
T1 construct: extracellular domain; Bought protein; also called human TrkB-extracellular domain protein; human TrkB ectodomain protein
T1 sequence (Q16620 32-430): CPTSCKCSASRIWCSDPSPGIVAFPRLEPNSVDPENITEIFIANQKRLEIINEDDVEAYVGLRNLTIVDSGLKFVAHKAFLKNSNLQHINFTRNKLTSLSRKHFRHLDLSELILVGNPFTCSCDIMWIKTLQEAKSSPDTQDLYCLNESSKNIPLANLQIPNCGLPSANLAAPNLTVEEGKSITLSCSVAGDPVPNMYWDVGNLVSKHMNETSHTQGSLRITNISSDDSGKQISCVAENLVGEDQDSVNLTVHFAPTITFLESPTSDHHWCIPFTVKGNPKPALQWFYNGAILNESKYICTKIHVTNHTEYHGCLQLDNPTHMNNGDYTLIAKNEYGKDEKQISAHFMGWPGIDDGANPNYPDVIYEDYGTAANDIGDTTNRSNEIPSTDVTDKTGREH
PROTOCOL: SPR (Biacore), TrkB ectodomain immobilised on CM5, antibody injected
Measured pKd accompanies every entry in the list below.
Entry type: numeric. Quantity: pKd, the -log10 of concentration in molar units.

Reported pKd ( mouse TOA-1 antibody (antibody, mouse IgG1, V domains shown, Hybridoma antibody, cloned with mouse IgG1 and mouse Kappa primers; also called muTOA-1; mTOA-1) VH: EVQLQQSGPELVKPGASMKISCKTSGYSFTAYFMNWVKQSHGKSLEWIGRINPNNGDTFYTQKFKGKATLTVDKSSNTAHMELLSLTSEDSAIYYCGRRDYFGAMDYWGQGTSVTVSS VL: AIVLIQSPATLSVTPGDSVSLSCRASQTISNNLHWYQQKSHESPRLLIKSASLAISGIPSRFSGSGSGTDFTLSISSVETEDFGMYFCQQSNSWPNTFGGGTKLEIK ) = 7.83

// huTOA-1 v1.0/2.0 (antibody, V domains shown, Human IgG; constant regions not restated; also called VH human v1.0 / VL human v2.0) VH: EVQLVESGGGLVQPGGSLRLSCAASGYSFTAYFMNWVRQAPGKGLEWVARINPNNGDTFYTQKFKGRFTISRDNAKNSLYLQMNSLRAEDTAVYYCARRDYFGAMDYWGQGTLVTVSS VL: EIVMTQSPATLSVSPGERATLSCRASQTISNNLHWYQQKPGQAPRLLIYSASLAISGIPARFSGSGSGTEFTLTISSLQSEDFAVYYCQQSNSWPNTFGGGTKVEIK : pKd value = 7.78

chimeric TOA-1 antibody (antibody, V domains shown, also called chiTOA-1; VH mouse / VL mouse) VH: EVQLQQSGPELVKPGASMKISCKTSGYSFTAYFMNWVKQSHGKSLEWIGRINPNNGDTFYTQKFKGKATLTVDKSSNTAHMELLSLTSEDSAIYYCGRRDYFGAMDYWGQGTSVTVSS VL: AIVLIQSPATLSVTPGDSVSLSCRASQTISNNLHWYQQKSHESPRLLIKSASLAISGIPSRFSGSGSGTDFTLSISSVETEDFGMYFCQQSNSWPNTFGGGTKLEIK yielded pKd of 7.92

Briefly, pKd measured for TAM-163 (huTOA-1 v1.0/1.4) (antibody, human IgG1, kappa, V domains shown, IgG1 with effector-function ablating CH2; Also used biotinylated; also called humanized TOA-1; Humanized TOA1) VH: EVQLVESGGGLVQPGGSLRLSCAASGYSFTAYFMNWVRQAPGKGLEWVARINPNNGDTFYTQKFKGRFTISRDNAKNSLYLQMNSLRAEDTAVYYCARRDYFGAMDYWGQGTLVTVSS VL: DIQMTQSPSSLSASVGDRVTITCRASQTISNNLHWYQQKPGKAPKLLIKSASLAISGVPSRFSGSGSGTDFTLTISSLQPEDFATYYCQQSNSWPNTFGGGTKVEIKR : 8.03
